System: Staphylococcus aureus
Assay: Antibacterial activity against Staphylococcus aureus 1199B overexpressing NorA pump after 18 hrs by MTT assay
Type: functional
Measured property: MIC

{"Molecule": "CCc1oc(=O)c(Cc2c(O)c(CC=C(C)C)c(O)c(C(C)=O)c2O)c(O)c1C [ARZANOL]", "Recorded value": "1 mg/L"}
{"Molecule": "CCc1oc(OC)c(Cc2c(O)c(CC=C(C)C)c(O)c(C(C)=O)c2O)c(=O)c1C [METHYLARZANOL]", "Recorded value": "> 128 mg/L"}
{"Molecule": "CCn1cc(C(=O)O)c(=O)c2cc(F)c(N3CCNCC3)cc21 [NORFLOXACIN]", "Recorded value": "32 mg/L"}
{"Molecule": "CCCc1oc(=O)c(C(C)c2c(O)c(CC=C(C)C)c(O)c(C(C)=O)c2O)c(O)c1C(C)C (stereo unspecified)", "Recorded value": "32 mg/L"}
{"Molecule": "COC(=O)/C=C/c1ccc(OC/C=C(\\C)CCC=C(C)C)cc1", "Recorded value": "> 128 mg/L"}
{"Molecule": "C=C(COC(=O)C(C)C)[C@H]1Cc2cc(C(C)=O)ccc2O1", "Recorded value": "> 128 mg/L"}
{"Molecule": "CCc1oc(=O)c(Cc2c(O)c(C(C)=O)c(O)c3c2OC(C)(C)CC3)c(O)c1C [CYCLOARZANOL B]", "Recorded value": "> 128 mg/L"}
{"Molecule": "C=C(COC(=O)CCCCCCC/C=C\\CCCCCCCC)[C@H]1Cc2cc(C(C)=O)ccc2O1 [OLEOYLBITALIN A]", "Recorded value": "> 128 mg/L"}
{"Molecule": "CCC(C)C(=O)C(C)c1oc(=O)c(C)c(O)c1C (stereo unspecified) [MICROPYRONE]", "Recorded value": "> 128 mg/L"}
{"Molecule": "CCc1oc(=O)c(Cc2c(O)c3c(c(C(C)=O)c2O)OC(C)(C)CC3)c(O)c1C [CYCLOARZANOL A]", "Recorded value": "128 mg/L"}
{"Molecule": "C=C(COC(C)=O)[C@H]1Cc2cc(C(C)=O)ccc2O1", "Recorded value": "> 128 mg/L"}
{"Molecule": "CCCCCC(=O)C(c1c(O)c(CC=C(C)C)c(O)c(C(C)=O)c1O)c1c(O)c(CC)c(C)oc1=O (stereo unspecified)", "Recorded value": "16 mg/L"}
{"Molecule": "C=C(COC(=O)CC)[C@H]1Cc2cc(C(C)=O)ccc2O1 [PROPANOYLBITALIN A]", "Recorded value": "> 128 mg/L"}
{"Molecule": "CCc1oc(=O)c(Cc2c(O)c(C)c(CC)oc2=O)c(O)c1C [HELIPYRONE]", "Recorded value": "> 128 mg/L"}
{"Molecule": "C=C(COC(=O)CCC(C)C)[C@H]1Cc2cc(C(C)=O)ccc2O1", "Recorded value": "> 128 mg/L"}
{"Molecule": "CCCc1oc(=O)c(C(c2ccccc2)c2c(O)c(CC=C(C)C)c(O)c(C(C)=O)c2O)c(O)c1C(C)C (stereo unspecified)", "Recorded value": "16 mg/L"}
{"Molecule": "C=C(COC(=O)C(C)CC)[C@H]1Cc2cc(C(C)=O)ccc2O1 (stereo partly specified)", "Recorded value": "> 128 mg/L"}
{"Molecule": "CCc1c(C)oc(=O)c(C(C)c2c(O)c(CC=C(C)C)c(O)c(C(C)=O)c2O)c1O (stereo unspecified)", "Recorded value": "128 mg/L"}
{"Molecule": "COC(=O)/C=C\\c1ccc(OC/C=C(\\C)CCC=C(C)C)cc1", "Recorded value": "> 128 mg/L"}
{"Molecule": "CCc1oc(=O)c(Cc2c(O)c(CC=C(C)C)c(O)c(C(C)=O)c2O)c(O)c1CC", "Recorded value": "1 mg/L"}
{"Molecule": "C=C(COC(=O)CCCCCCCC)[C@H]1Cc2cc(C(C)=O)ccc2O1 [NONANOYLBITALIN A]", "Recorded value": "> 128 mg/L"}
